Where do these numbers come from? They come from patent US9655899B2.

- System: colorectal cancer cell lines
- MEASUREMENT_DESCRIPTION: Cellular proliferation assay screen (CellTiter-Glo, 96 hours)
- Assay type: cell-based
- MEASUREMENT_SETUP: Homo sapiens; n=66; read-out: mean EC50
REPORTED_METRIC: EC50

INPUT: # EC50 lookup, item `C=CCn1c(=O)c2cnc(Nc3ccc(N4CCN(C)CC4)cc3)nc2n1-c1cccc(C(C)(C)O)n1`
OUTPUT: 1160 nM

* * *

- Tested on: colorectal cancer cell lines
- MEASUREMENT_DESCRIPTION: Cellular proliferation assay screen (CellTiter-Glo, 96 hours)
- Format: cell-based
- MEASUREMENT_SETUP: Homo sapiens; n=66; read-out: EC50 range
REPORTED_METRIC: EC50

INPUT: Recall the recorded EC50 for C=CCn1c(=O)c2cnc(Nc3ccc(N4CCN(C)CC4)cc3)nc2n1-c1cccc(C(C)(C)O)n1 [WEE1-1] with colorectal cancer cell lines and state it.
OUTPUT: ≥ 170 nM
